Data origin, for the record: ChEMBL document CHEMBL1144403

ASSAY_SYSTEM: Sphingosine 1-phosphate receptor 5 (Homo sapiens)
Sequence (Q9H228 whole entry): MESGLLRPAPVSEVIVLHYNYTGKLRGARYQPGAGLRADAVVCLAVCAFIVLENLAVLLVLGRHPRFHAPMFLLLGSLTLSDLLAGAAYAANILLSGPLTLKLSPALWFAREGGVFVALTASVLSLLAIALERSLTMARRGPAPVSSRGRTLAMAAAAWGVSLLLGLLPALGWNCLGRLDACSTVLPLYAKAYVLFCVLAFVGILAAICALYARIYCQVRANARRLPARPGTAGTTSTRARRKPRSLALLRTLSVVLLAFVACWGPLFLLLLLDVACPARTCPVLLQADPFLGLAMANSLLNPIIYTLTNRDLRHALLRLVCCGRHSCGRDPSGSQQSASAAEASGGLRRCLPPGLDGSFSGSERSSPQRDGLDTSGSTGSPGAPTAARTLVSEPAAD
TEST_NAME: Agonism of human S1P-5 receptor expressed in CHO cells, 90-120 min in pH 7.4 using [35S]GTP-gamma-S as radioligand
MEASUREMENT_NAME: EC50

Exercise: Look up EC50 for this molecule: CCCCCCCCc1ccc(CCC(N)(CO)CO)cc1 [FINGOLIMOD]
Key: > 10 µM

====

ASSAY_SYSTEM: Sphingosine 1-phosphate receptor 2 (Homo sapiens)
Sequence (O95136 whole entry): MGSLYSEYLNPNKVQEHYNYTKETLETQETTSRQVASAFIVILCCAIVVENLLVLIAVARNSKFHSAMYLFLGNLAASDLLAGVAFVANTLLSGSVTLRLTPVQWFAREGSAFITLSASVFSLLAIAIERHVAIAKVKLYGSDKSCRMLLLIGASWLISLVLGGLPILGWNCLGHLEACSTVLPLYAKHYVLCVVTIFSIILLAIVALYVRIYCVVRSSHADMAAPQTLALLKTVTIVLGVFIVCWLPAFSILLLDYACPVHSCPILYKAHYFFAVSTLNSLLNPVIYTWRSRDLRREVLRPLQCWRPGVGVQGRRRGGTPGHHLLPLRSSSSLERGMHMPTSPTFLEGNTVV
TEST_NAME: Agonism of human S1P-2 receptor expressed in CHO cells, 90-120 min in pH 7.4 using [35S]GTP-gamma-S as radioligand
MEASUREMENT_NAME: EC50

Exercise: Look up EC50 for this compound: CCCCCCCCc1ccc(CCC(N)(CO)CO)cc1 [FINGOLIMOD]
Key: > 10 µM

====

ASSAY_SYSTEM: Sphingosine 1-phosphate receptor 3 (Homo sapiens, UniProt Q99500)
Sequence (Q99500 whole entry): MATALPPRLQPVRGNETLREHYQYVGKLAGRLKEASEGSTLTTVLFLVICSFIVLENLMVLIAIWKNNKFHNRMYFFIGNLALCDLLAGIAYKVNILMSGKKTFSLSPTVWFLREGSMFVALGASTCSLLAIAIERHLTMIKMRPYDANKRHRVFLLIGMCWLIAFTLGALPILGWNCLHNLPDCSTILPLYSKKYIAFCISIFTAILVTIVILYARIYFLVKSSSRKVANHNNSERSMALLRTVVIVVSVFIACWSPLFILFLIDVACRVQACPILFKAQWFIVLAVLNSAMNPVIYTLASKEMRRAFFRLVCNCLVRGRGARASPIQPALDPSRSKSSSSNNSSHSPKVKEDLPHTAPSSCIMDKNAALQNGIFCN
TEST_NAME: Agonism of human S1P-3 receptor expressed in CHO cells, 90-120 min in pH 7.4 using [35S]GTP-gamma-S as radioligand
MEASUREMENT_NAME: EC50

Exercise: Look up EC50 for this compound: CCCCCCCCc1ccc(CCC(N)(CO)CO)cc1
Key: > 10 µM
